system: Streptococcus uberis 150 L; assay: MIC, in vitro activity vs. Streptococcus uberis 150 L; assay type: cell-based; set-up: unit not given beside the values; details: Incubated at 37° C. overnight
MIC vs. Streptococcus uberis 150 L by entry:

Entry "Cc1nnc(SCC2=C(C(=O)O)N3C(=O)[C@@H](NC(=O)CSc4c(F)c(F)c(C(F)(F)F)c(F)c4F)[C@H]3SC2)s1" , Streptococcus uberis 150 L data, MIC vs. Streptococcus uberis 150 L value: 0.0156

// returns MIC vs. Streptococcus uberis 150 L for CC(=O)OCC1=C(C(=O)O)N2C(=O)[C@@H](NC(=O)Cc3cccs3)[C@H]2SC1 [Cephalothin, reference compound] with Streptococcus uberis 150 L; value = 0.125

Streptococcus uberis 150 L data for "Cc1nnc(SCC2=C(C(=O)O)N3C(=O)[C@@H](NC(=O)COc4cc(F)cc(F)c4)[C@H]3SC2)s1" ; its MIC vs. Streptococcus uberis 150 L: 0.0312

Observed MIC vs. Streptococcus uberis 150 L on Streptococcus uberis 150 L, entry "Cc1nnc(SCC2=C(C(=O)O)N3C(=O)[C@@H](NC(=O)COc4ccc(OC(F)(F)F)cc4)[C@H]3SC2)s1" , equals 0.0156

Measured on Streptococcus uberis 150 L, "Cc1nnc(SCC2=C(C(=O)O)N3C(=O)[C@@H](NC(=O)COc4ccc(F)cc4)[C@H]3SC2)s1" has a documented MIC vs. Streptococcus uberis 150 L of 0.0312
